Test system: urinary bladder
Test Method Notes: Potentiation effect for rhythmic contraction of urinary bladder in guinea pig, Experimental Example 2
Assay type: in vivo, Hartley male guinea pigs
Experimental Setup: Cavia porcellus, iv, urethane-anesthetized guinea pig; dose at which AUC of bladder internal pressure before drug administration was increased 2 times; read-out: AUC200 (mg/kg, i.v.)
Parameter threshold = 0.005 mg/kg. Response is label 1 when ED (2-fold bladder contraction AUC) meets or exceeds it, else label 0.

Query string: Answer whether ED (2-fold bladder contraction AUC) of Cc1ccccc1CN1CCC(CCC(=O)c2cc3c4c(c2)CCN4C(=O)CC3)CC1 is greater than or equal to 0.005 mg/kg.
Result string: label 1

Query string: Could you please find out whether O=C(CCC1CCN(Cc2ccccc2O)CC1)c1cc2c3c(c1)CCN3C(=O)CC2 has ED (2-fold bladder contraction AUC) that meets 0.005 mg/kg or exceeds it?
Result string: label 0

Query string: Has O=C(CCC1CCN(Cc2cccc([N+](=O)[O-])c2)CC1)c1cc2c3c(c1)CCN3C(=O)CC2 a recorded ED (2-fold bladder contraction AUC) greater than or equal to 0.005 mg/kg?
Result string: label 1

Query string: Does ED (2-fold bladder contraction AUC) meet or surpass 0.005 mg/kg for O=C(CCC1CCN(Cc2ccccc2Cl)CC1)c1cc2c3c(c1)CCN3C(=O)CC2 ?
Result string: label 0

Query string: Would you say O=C(CCC1CCN(Cc2cccc(F)c2)CC1)c1cc2c3c(c1)CCN3C(=O)CC2 [Reference Example 15] shows ED (2-fold bladder contraction AUC) at minimum 0.005 mg/kg?
Result string: label 0

Reference for the values: patent US8252814B2
